Listing: log10 IC50 of selected compounds
# Tested on: ACHN
# assayExplanation: Cytotoxicity against human ACHN cells assessed as reduction in cell viability measured after 72 hrs by CCK8 assay
# Format: functional, cell-based
Note the log scale: values are log10 of IC50 expressed in µM.

>>> quantitativeresult("C/C=C(\\C)[C@H](O[C@@H]1O[C@H](CO[C@H]2O[C@H](CO)[C@H](O)[C@H](O)[C@H]2O)[C@@H](O)[C@H](O)[C@H]1O)[C@H](C)/C=C(C)/C=C/C/C(C)=C/Cc1nc(OC)c(OC)c(O)c1C")
0.65

--- query ---
Query string: Look up log10 IC50 with ACHN for this compound: "C/C=C/[C@H](O)[C@H](C)/C=C(C)/C=C/C/C(C)=C/Cc1nc(OC)c(OC)c(O)c1C"
Result string: 0.61

====

Listing: pIC50 of selected compounds
# Test system: ACHN
# assayExplanation: Cytotoxicity against human ACHN cells assessed as reduction in cell viability measured after 72 hrs by CCK8 assay
# Format: functional, cell-based
Please express pIC50 as -log10 of the molar concentration.

Below: 5 compounds and their reported pIC50.
>>> quantitativeresult("C/C=C(\\C)[C@H](O[C@@H]1O[C@H](CO)[C@@H](O)[C@H](O)[C@H]1O)[C@H](C)/C=C(C)/C=C/C/C(C)=C/Cc1nc(OC)c(OC)c(O[C@@H]2O[C@H](CO)[C@@H](O)[C@H](O)[C@H]2O)c1C")
4.55
>>> quantitativeresult("C/C=C(\\C)[C@H](O[C@@H]1O[C@H](CO)[C@@H](O)[C@H](O)[C@H]1O)[C@H](C)/C=C(\\C)[C@@H](OC)[C@@H](O)C/C(C)=C/Cc1nc(OC)c(OC)c(O)c1C")
5.62
>>> quantitativeresult("C/C=C(\\C)[C@H](O[C@@H]1O[C@H](CO[C@H]2O[C@H](CO)[C@@H](O)[C@H](O)[C@H]2O)[C@@H](O)[C@H](O)[C@H]1O)[C@H](C)/C=C(C)/C=C/C/C(C)=C/Cc1nc(OC)c(OC)c(O)c1C")
4.68
>>> quantitativeresult("C/C=C(\\C)[C@H](O[C@@H]1O[C@H](CO)[C@@H](O)[C@H](O)[C@H]1O)[C@H](C)/C=C/C=C/C/C(C)=C/Cc1nc(OC)c(OC)c(O)c1C")
6.51
>>> quantitativeresult("COc1nc(C/C=C(\\C)C/C=C/C(C)=C/[C@@H](C)[C@@H](O[C@@H]2O[C@H](CO)[C@@H](O)[C@H](O)[C@H]2O)[C@@]2(C)O[C@@H]2C)c(C)c(O)c1OC")
5.55

Query string: Recorded pIC50 for "CNC(=O)c1cc(Oc2ccc(NC(=O)Nc3ccc(Cl)c(C(F)(F)F)c3)cc2)ccn1" , please?
Result string: 5.48

Query string: How about this compound: "COc1nc(C/C=C(\C)C/C(C)=C/C(C)=C/[C@@H](C)[C@@H](O)/C(C)=C/[C@@](C)(O)[C@H](C)O)c(C)c(O)c1OC"
Result string: 5.42

Query string: How about this compound: "C/C=C(\C)[C@H](O[C@@H]1O[C@H](CO)[C@@H](O)[C@H](O)[C@H]1O)[C@H](C)/C=C(C)/C=C/C/C(C)=C/Cc1nc(OC)cc(O)c1C"
Result string: 5.42

Query string: How about this compound: "C/C=C(\C)[C@H](O[C@@H]1O[C@H](CO)[C@@H](O)[C@H](O)[C@H]1O)[C@H](C)/C=C(C)/C=C/C/C(C)=C/Cc1nc(OC)c(OC)c(O)c1C"
Result string: 6.68

Query string: How about this compound: "COc1nc(C/C=C(\C)C/C=C/C(C)=C/[C@@H](C)[C@@H](O[C@@H]2O[C@H](CO[C@H]3O[C@H](CO)[C@@H](O)[C@H](O)[C@H]3O)[C@@H](O)[C@H](O)[C@H]2O)/C(C)=C/CO)c(C)c(O)c1OC"
Result string: 4.64

====

# Tested on: ACHN
# assayExplanation: Cytotoxicity against human ACHN cells assessed as reduction in cell viability measured after 72 hrs by CCK8 assay
# Format: functional, cell-based
pIC50: −log10 of the molar value.
observationType: pIC50

Below: 2 compounds and their reported pIC50.
>>> result("COc1nc(C/C=C(\\C)C/C(C)=C/C(C)=C/[C@@H](C)[C@@H](O)[C@]2(C)O[C@H]2C)c(C)c(O)c1OC")
"< 4.00"
>>> result("COc1nc(C/C=C(\\C)C/C=C/C(C)=C/[C@@H](C)[C@@H](O[C@@H]2O[C@H](CO[C@H]3O[C@H](CO)[C@H](O)[C@H](O)[C@H]3O)[C@@H](O)[C@H](O)[C@H]2O)/C(C)=C/CO)c(C)c(O)c1OC")
"< 4.00"

--- query ---
Query string: Recorded pIC50 for "C/C=C(\C)C(=O)[C@H](C)/C=C(C)/C=C/C/C(C)=C/Cc1nc(OC)c(OC)c(O)c1C" , please?
Result string: < 4.00
